Measurement Notes: Pharmacokinetic evaluation of compound in Balb/c mice
Type: in vivo
Measurement Conditions: male, mouse, plasma, 1 mg/kg, PO
Readout Kind: half-life

Example compounds with recorded half-life:
1. [2H]C([2H])([2H])NC(=O)c1ccc(C2=CCN(Cc3cnc4cc(CC)c(=O)[nH]c4c3)CC2)c(C)n1	4.1 h
2. [2H]C([2H])([2H])NC(=O)c1ccc(C2=CCN(Cc3ccc4nc(CC)c(=O)[nH]c4c3F)CC2)cn1	11.5 h
3. [2H]C([2H])([2H])NC(=O)c1ccc(C2=CCN(Cc3cnc4cc(CC)c(=O)[nH]c4c3)CC2)c(F)n1	4.64 h

Please supply the value of reported half-life for the item CCc1cc2ncc(CN3CCN(c4ccc(C(=O)NC)nc4)CC3)cc2[nH]c1=O [AZD5305, reference compound]
14.7 h

Please supply the value of reported half-life for the item [2H]C([2H])([2H])C([2H])([2H])c1cc2ncc(CN3CC=C(c4ccc(C(=O)NC5CC5)nc4)CC3)cc2[nH]c1=O
3.87 h

* * *

Measurement Notes: Pharmacokinetic evaluation of compound in Balb/c mice
Format: in vivo
Measurement Conditions: male, mouse, plasma, 1 mg/kg, PO
# strict inequality: Cmax < 5000 ng/mL yields yes (1), everything else yields no (0)

// known answers, use as guide
1) CCc1cc2ncc(CN3CCN(c4ccc(C(=O)NC)nc4)CC3)cc2[nH]c1=O [AZD5305, reference compound]	no (0)
2) [2H]C([2H])([2H])NC(=O)c1ccc(C2=CCN(Cc3ccc4nc(CC)c(=O)[nH]c4c3F)CC2)cn1 [Compound 4]	no (0)
3) [2H]C([2H])([2H])NC(=O)c1ccc(C2=CCN(Cc3cnc4cc(CC)c(=O)[nH]c4c3)CC2)c(F)n1 [Compound 10]	yes (1)

Turning to the following molecule.
Please state whether Cmax is below 5000 ng/mL for [2H]C([2H])([2H])C([2H])([2H])c1cc2ncc(CN3CC=C(c4ccc(C(=O)NC5CC5)nc4)CC3)cc2[nH]c1=O [Compound 12]
yes (1)

* * *

Test system: BRCA-mutated MDA-MB-436 cells
Measurement Notes: Anti-proliferative activity assay of cell (CCK8), MDA-MB-436
Measurement Conditions: Homo sapiens, MDA-MB-436, read-out: MDA-MB-436 IC50
Readout Kind: pIC50
Recall that pIC50 is obtained by taking minus log10 of the concentration measured in molar.

Please supply the value of reported pIC50 for the item [2H]C(c1cnc2cc(CC)c(=O)[nH]c2c1)N1CC=C(c2ccc(C(=O)NC3CC3)nc2)CC1 (centres unmarked)
9.15

* * *

Tested Target: PARP2 (Homo sapiens, UniProt Q9UGN5)
Construct: purchased BPS 80502
Sequence (Q9UGN5 whole entry): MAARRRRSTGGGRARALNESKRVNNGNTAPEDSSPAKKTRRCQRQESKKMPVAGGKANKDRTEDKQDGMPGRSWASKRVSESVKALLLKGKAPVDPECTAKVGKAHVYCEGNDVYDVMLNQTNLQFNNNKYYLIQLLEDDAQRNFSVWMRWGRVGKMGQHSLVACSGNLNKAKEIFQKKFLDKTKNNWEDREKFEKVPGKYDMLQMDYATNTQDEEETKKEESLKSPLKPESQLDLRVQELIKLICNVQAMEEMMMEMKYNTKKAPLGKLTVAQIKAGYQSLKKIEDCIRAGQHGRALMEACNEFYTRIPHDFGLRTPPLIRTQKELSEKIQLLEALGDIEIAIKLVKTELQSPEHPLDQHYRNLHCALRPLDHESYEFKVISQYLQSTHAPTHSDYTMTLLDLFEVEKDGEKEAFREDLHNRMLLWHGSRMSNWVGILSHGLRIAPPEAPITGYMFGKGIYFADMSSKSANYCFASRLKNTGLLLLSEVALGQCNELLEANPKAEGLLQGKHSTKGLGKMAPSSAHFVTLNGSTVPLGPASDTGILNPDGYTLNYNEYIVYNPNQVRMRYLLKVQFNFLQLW
Measurement Notes: Determination of PARP2 enzyme (histone-coated plate, Biotin-NAD+)
Assay type: biochemical
Readout Kind: IC50

Please supply the value of reported IC50 for the item [2H]C([2H])([2H])C([2H])([2H])c1cc2ncc(CN3CC=C(c4ccc(C(=O)NC)nc4)CC3)cc2[nH]c1=O
> 1 µM

* * *

Measurement Notes: Pharmacokinetic evaluation of compound in Balb/c mice
Type: in vivo
Measurement Conditions: male, mouse, plasma, 1 mg/kg, PO
Label y for high-side AUC(0-t) (at or above 40000 ng·h/mL) and n for low-side AUC(0-t) (below it).

// known answers, use as guide
1. [2H]C([2H])([2H])NC(=O)c1ccc(C2=CCN(Cc3ccc4nc(CC)c(=O)[nH]c4c3F)CC2)cn1	y
2. [2H]C([2H])([2H])NC(=O)c1ccc(C2=CCN(Cc3cnc4cc(CC)c(=O)[nH]c4c3)CC2)c(F)n1	y
3. [2H]C([2H])([2H])C([2H])([2H])c1cc2ncc(CN3CC=C(c4ccc(C(=O)NC5CC5)nc4)CC3)cc2[nH]c1=O	n

AUC(0-t) >= 40000 ng·h/mL for CCc1cc2ncc(CN3CCN(c4ccc(C(=O)NC)nc4)CC3)cc2[nH]c1=O [AZD5305, reference compound] ?
y

AUC(0-t) >= 40000 ng·h/mL for [2H]C([2H])([2H])NC(=O)c1ccc(C2=CCN(Cc3cnc4cc(CC)c(=O)[nH]c4c3)CC2)c(C)n1 ?
y

* * *

Measurement Notes: Pharmacokinetic evaluation of compound in Balb/c mice
Assay type: in vivo
Measurement Conditions: 1 mg/kg, PO
Readout Kind: Vdss (L/kg)
// note: answer is a bare numeric in L/kg

1. [2H]C([2H])([2H])NC(=O)c1ccc(C2=CCN(Cc3ccc4nc(CC)c(=O)[nH]c4c3F)CC2)cn1	0.14
2. [2H]C([2H])([2H])NC(=O)c1ccc(C2=CCN(Cc3cnc4cc(CC)c(=O)[nH]c4c3)CC2)c(F)n1	0.15
3. CCc1cc2ncc(CN3CCN(c4ccc(C(=O)NC)nc4)CC3)cc2[nH]c1=O [AZD5305, reference compound]	0.16

Please supply the value of reported Vdss for the item [2H]C([2H])([2H])NC(=O)c1ccc(C2=CCN(Cc3cnc4cc(CC)c(=O)[nH]c4c3)CC2)c(C)n1
0.14

Please supply the value of reported Vdss for the item [2H]C([2H])([2H])C([2H])([2H])c1cc2ncc(CN3CC=C(c4ccc(C(=O)NC5CC5)nc4)CC3)cc2[nH]c1=O
0.70

Data origin, for the record: patent EP4606801A1
